B1: HDV Ribozyme (parent)
chain: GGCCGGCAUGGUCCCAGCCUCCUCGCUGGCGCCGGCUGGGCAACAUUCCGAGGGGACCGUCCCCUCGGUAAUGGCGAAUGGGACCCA

Variants of: B1
Assay: self-cleavage, relative activity (ratio to wild type); higher = more cleavage; co-transcriptional
Catalogue of self-cleavage values
Respond with the number and no other words.

[[record]]
mutation_name = "G10U G81C"
endpoint_name = "self-cleavage"
endpoint_value = 0.101

[[record]]
mutation_name = "A77G C85U"
endpoint_name = "self-cleavage"
endpoint_value = 1.04

[[record]]
mutation_name = "C13U G74U"
endpoint_name = "self-cleavage"
endpoint_value = 0.0852

[[record]]
mutation_name = "C3A G6A"
endpoint_name = "self-cleavage"
endpoint_value = 0.0931

[[record]]
mutation_name = "C21G C63U"
endpoint_name = "self-cleavage"
endpoint_value = 0.0339

[[record]]
mutation_name = "C14G A16C"
endpoint_name = "self-cleavage"
endpoint_value = 0.0875

[[record]]
mutation_name = "C30A G59U"
endpoint_name = "self-cleavage"
endpoint_value = 0.637

[[record]]
mutation_name = "C18G U69G"
endpoint_name = "self-cleavage"
endpoint_value = 0.128


Please report the recorded self-cleavage for C21G G29U .
0.0733

Please report the recorded self-cleavage for A51C A56G .
0.831

Please report the recorded self-cleavage for C30A G35U .
0.166

Please report the recorded self-cleavage for C21U A43C .
0.0545

Please report the recorded self-cleavage for C32U G81C .
0.248

Please report the recorded self-cleavage for C36G G67A .
0.157

Please report the recorded self-cleavage for C26A C41G .
0.883

Please report the recorded self-cleavage for C62A C66U .
0.597

Please report the recorded self-cleavage for G17A G74A .
0.132

Please report the recorded self-cleavage for C30G G82A .
0.0941

Please report the recorded self-cleavage for C49A G80U .
0.188
